# Target or test system: Solute carrier family 2, facilitated glucose transporter member 1 (Homo sapiens) (UniProt P11166)
# Sequence (P11166 whole entry): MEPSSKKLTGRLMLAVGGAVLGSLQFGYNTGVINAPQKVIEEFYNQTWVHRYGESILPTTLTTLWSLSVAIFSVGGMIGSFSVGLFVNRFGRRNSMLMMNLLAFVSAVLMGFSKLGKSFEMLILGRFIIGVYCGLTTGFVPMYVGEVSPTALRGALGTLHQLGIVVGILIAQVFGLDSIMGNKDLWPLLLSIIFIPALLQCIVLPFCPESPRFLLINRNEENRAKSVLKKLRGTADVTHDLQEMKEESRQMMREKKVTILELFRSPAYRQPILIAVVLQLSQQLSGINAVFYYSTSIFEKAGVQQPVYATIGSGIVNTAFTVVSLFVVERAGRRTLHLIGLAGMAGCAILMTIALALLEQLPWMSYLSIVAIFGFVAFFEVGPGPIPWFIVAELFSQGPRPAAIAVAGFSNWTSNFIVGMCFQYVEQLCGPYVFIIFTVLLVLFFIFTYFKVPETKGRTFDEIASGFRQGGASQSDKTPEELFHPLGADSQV
# Test details: ST_JUDE_LEISH: Cytotoxicity at 2uM final concentration against transgenic Leishmania Mexicana promastigotes LmGLUT1 that are glucose transport deficient and complemented with the human glucose transporter GLUT1. Activity is measured by DNA content using SYBR green in vitro
# Type: functional
Readout kind: inhibition (%)
Only the number, expressed in %, is required.

1) COc1ccc(C=Cc2ccc(-c3c(C)[nH]c(C)c(Cl)c3=O)cc2)cc1OC	-0.83

Please fill in: inhibition reported for C[C@@]12C[C@@H](Nc3nc(NCCc4ccc(O)cc4)nc(N4CCNCC4)n3)C[C@@H](C1)c1cccc(Cl)c1O2 = -1.38

Please fill in: inhibition reported for CCCNC(=O)c1ccnc(-c2ccc(CNC3Cc4ccccc4C3)cc2)c1 = 1.45

Please fill in: inhibition reported for COc1ccc(NC(=O)[C@H](CC(C)C)Nc2cc(C)nc(NCCc3ccccc3OC)n2)cc1 = 1.28

Please fill in: inhibition reported for CCN(CC)c1ccc(C(c2ccc(N(CC)CC)cc2)c2cccc([N+](=O)[O-])c2)cc1 = 15.2

Please fill in: inhibition reported for CN(C)c1ccc(C2(c3ccccc3)N=C(N)N(CCCc3ccccc3)C2=O)cc1 (centres undefined) = 3.64

====

# Target or test system: Solute carrier family 2, facilitated glucose transporter member 1 (Homo sapiens) (UniProt P11166)
# Test details: ST_JUDE_LEISH: Cytotoxicity at 2uM final concentration against transgenic Leishmania Mexicana promastigotes LmGLUT1 that are glucose transport deficient and complemented with the human glucose transporter GLUT1. Activity is measured by DNA content using SYBR green in vitro
# Format: functional
List of inhibition values.
# answer = value followed by unit

Some solved entries appear below for comparison.
1. COc1cc(CCNCC(O)c2ccc([N+](=O)[O-])c(OCc3ccccc3)c2)cc(OC)c1OC (stereo not given)	-0.46%
2. CN(C)CCCSc1ccccc1NC(=O)C=Cc1ccccc1	5.73%
3. COc1ccc(C=C2SC(=N)N(c3ccccc3OC)C2=O)cc1	6.44%

Please fill in: inhibition reported for Cc1nc(C)c(-c2ccc(C(=O)c3ccc(Cl)cc3)cc2)c(O)c1Cl = 8.16%

Please fill in: inhibition reported for Cn1cc(CN2CCCC(COC(c3ccccc3)c3ccccc3)C2)cn1 (stereo not given) = 1.48%

Please fill in: inhibition reported for CC(C)c1ccc(CN2CCC(CNC(=O)c3cc(-c4ccccc4F)cs3)C2)cc1 (stereo not given) = 4.5%

Please fill in: inhibition reported for Cc1ccc2nc(N/C(N)=N/C(=O)NC3CCCCC3)nc(C)c2c1 = 3.24%

Please fill in: inhibition reported for O=C(Cn1c(CCc2cccc(F)c2F)cc(=O)c2cccnc21)N(CCn1ccnc1)Cc1ccc(-c2ccc(C(F)(F)F)cc2)cc1 = -0.44%

Please fill in: inhibition reported for COc1ccccc1Cn1ccnc1SCC(=O)Nc1cccc(C(F)(F)F)c1 = 0.58%

Please fill in: inhibition reported for CCC1(c2ccccc2)N=C(N)N(CCCc2ccccc2)C1=O (stereo not given) = 2.53%

====

# Target or test system: Glucose transporter (Leishmania mexicana) (UniProt O61059)
# Test details: ST_JUDE_LEISH: Cytotoxicity at 2uM final concentration against transgenic Leishmania Mexicana promastigotes LmGT2 that are glucose transport deficient and complemented with the L. Mexicana glucose transporter 2. Activity is measured by DNA content using SYBR green in vitro
# Assay type: functional
List of inhibition values.
Only the number, expressed in %, is required.

Some solved entries appear below for comparison.
1) OC(CNC1CCCCC1)Cn1c2ccc(Br)cc2c2cc(Br)ccc21 (centres undefined)	0.64
2) CN(C)c1ccc(Br)c(Br)c1	-1.28
3) CCCNCc1ccc(-c2ccc(CN(Cc3cnc(C)cn3)C(=O)CC#N)cc2)nc1	-1.49
4) CC(C)(C)c1ccc(CN2CCC(NC(=O)c3ccc(-c4cccc(C(F)(F)F)c4)s3)CC2)cc1	-5.64
5) CCOc1cc(NCCSCc2nc[nH]c2C)nc2ccccc12	-3.84
6) COc1ccc2nccc(N/N=C/c3cccc([N+](=O)[O-])c3)c2c1	4.33
7) COCC(C)n1c(SCC(=O)Nc2cc(C(F)(F)F)ccc2Cl)nc2ccccc2c1=O (centres undefined)	2.72
8) CN1CC[C@@H](Oc2cc(C(=O)NCc3ccc(Cl)c(Cl)c3)ccc2C(F)(F)F)C1	0.48

Please fill in: inhibition reported for CCCc1cc(OC)c(CC2c3cc(O)c(C)cc3CCN2C)cc1OC (centres undefined) = 3.59

Please fill in: inhibition reported for Cc1cc(CN2CCC(C(=O)Nc3ccc(-c4nc5ccccc5[nH]4)cc3)CC2)oc1C = 2.24

Please fill in: inhibition reported for O=C(Nc1cccc(-c2ccc(-c3nc4cc(C(F)(F)F)ccc4[nH]3)cc2)c1)c1c[nH]cn1 = 0.52
